system: Huh-7; assay: Cytotoxicity against human HuH7 cells assessed as reduction in cell viability at 10 uM after 48 hrs by Alamar blue assay; type: cell-based; settings: huh-7, 48 h
readout.type: Activity

Past entries and their recorded results:
COc1cc(NC(C)CCCNCC2CCC3(CC2)OOC2(OO3)C3CC4CC(C3)CC2C4)c2ncccc2c1-c1ccc(C(F)(F)F)cc1 (configuration not stated) = Toxic
COc1cc(NC(C)CCCNC(=O)C2CCC3(CC2)OOC2(OO3)C3CC4CC(C3)CC2C4)c2ncccc2c1-c1ccc(C)cc1 (configuration not stated) = Non-Toxic
COc1cc(NC(C)CCCNCC2CCC3(CC2)OOC2(OO3)C3CC4CC(C3)CC2C4)c2ncccc2c1-c1ccsc1 (configuration not stated) = Toxic
COc1cc(NCCCCCNC(=O)C2CCC3(CC2)OOC2(OO3)C3CC4CC(C3)CC2C4)c2ncccc2c1-c1ccc(F)cc1 (configuration not stated) = Non-Toxic
COc1cc(NC(C)CCCNCC2CCC3(CC2)OOC2(OO3)C3CC4CC(C3)CC2C4)c2ncccc2c1-c1ccccc1 (configuration not stated) = Toxic
COc1cc(NC(C)CCCNC(=O)C2CCC3(CC2)OOC2(OO3)C3CC4CC(C3)CC2C4)c2ncccc2c1-c1ccc(C(F)(F)F)cc1 (configuration not stated) = Non-Toxic

Turning now to a further compound:
**Query** Given the compound COc1cc(NC(C)CCCNC(=O)C2CCC3(CC2)OOC2(OO3)C3CC4CC(C3)CC2C4)c2ncccc2c1Br (configuration not stated) , what is its reported Activity?
**Result** Toxic

This collection of values is drawn from ChEMBL document CHEMBL4196053.
